test system: 328373-195-R-J1-PDC complex spheroids, viability % test/control; assay: Anticancer human tumor 328373-195-R-J1-PDC patient-derived head and neck squamous carcinoma cell line growth inhibition [CLK]; conditions: curve of first compound; second compound 0.1 µM
Please go through the items and note down their IC50.
The response must be a number in nM with no trailing unit.

CC(Nc1ccc2c(c1)OCCn1cc(N3C(=O)OCC3C(F)F)nc1-2)C(N)=O (stereo not given) + CN1CCN(c2cc(C(=O)Nc3cc4cc(-c5cnn(C)c5)ccc4cn3)ccn2)CC1 has a reported IC50 of 2420

COC1C=CCC(C)C(C)S(=O)(=O)NC(=O)c2ccc3c(c2)N(CC2CCC21)CC1(CCCc2cc(Cl)ccc21)CO3 (stereo not given) + CN1CCN(c2cc(C(=O)Nc3cc4cc(-c5cnn(C)c5)ccc4cn3)ccn2)CC1 has a reported IC50 of 7920

COc1ccc([C@@H](O)c2cc(-c3ncnc4cc(N5CCOCC5)ccc34)c(F)cc2Cl)nn1 + CN1CCN(c2cc(C(=O)Nc3cc4cc(-c5cnn(C)c5)ccc4cn3)ccn2)CC1 has a reported IC50 of 8160

CC1COCCN1c1cc(C2(S(C)(=N)=O)CC2)nc(-c2ccnc3[nH]ccc23)n1 (stereo not given) + CN1CCN(c2cc(C(=O)Nc3cc4cc(-c5cnn(C)c5)ccc4cn3)ccn2)CC1 has a reported IC50 of 1150

====

test system: 328373-195-R-J1-PDC complex spheroids, viability % test/control; assay: Anticancer human tumor 328373-195-R-J1-PDC cell line growth inhibition [CLK]; conditions: second compound 0.1 µM; first compound 0.0316 µM; stronger effect = lower value;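 also: spheroids exposed to the agents for 7 days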
test-readout: viability, T/C (%)
The response must be a number in % with no trailing unit.

O=C(c1cc(Cc2n[nH]c(=O)c3ccccc23)ccc1F)N1CCN(C(=O)C2CC2)CC1 + CNC(=O)c1ccc(Nc2nc(OC3CCCC3)c3c(-c4ccc5nc(C)oc5c4)c[nH]c3n2)c(OC)c1 has a reported viability, T/C of 13.8

COc1cccc2c1C(=O)c1c(O)c3c(c(O)c1C2=O)CC(O)(C(=O)CO)CC3OC1CC(N)C(O)C(C)O1 (stereo not given) + CN1CCN(c2cc(C(=O)Nc3cc4cc(-c5cnn(C)c5)ccc4cn3)ccn2)CC1 has a reported viability, T/C of 14.7

COc1c(OCCCN2CCOCC2)ccc2c3n(c(=NC(=O)c4cnc(N)nc4)nc12)CCN3 + CNC(=O)c1ccc(Nc2nc(OC3CCCC3)c3c(-c4ccc5nc(C)oc5c4)c[nH]c3n2)c(OC)c1 has a reported viability, T/C of 11.8

CC1COCCN1c1cc(C2(S(C)(=N)=O)CC2)nc(-c2ccnc3[nH]ccc23)n1 (stereo not given) + CNC(=O)c1ccc(Nc2nc(OC3CCCC3)c3c(-c4ccc5nc(C)oc5c4)c[nH]c3n2)c(OC)c1 has a reported viability, T/C of 13.4

C=CC(=O)N1CCN(c2nc(=O)n(-c3c(C)ccnc3C(C)C)c3nc(-c4c(O)cccc4F)c(F)cc23)C(C)C1 (stereo not given) + CNC(=O)c1ccc(Nc2nc(OC3CCCC3)c3c(-c4ccc5nc(C)oc5c4)c[nH]c3n2)c(OC)c1 has a reported viability, T/C of 11.2

====

tested on: 328373-195-R-J1-PDC complex spheroids, viability % test/control; experiment: Anticancer human tumor 328373-195-R-J1-PDC cell line growth inhibition [CLK]; conditions: second compound 1 µM; first compound 0.0949 µM; stronger effect = lower value;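 also: spheroids exposed to the agents for 7 days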
Please go through the items and note down their viability, T/C.
The response must be a number in % with no trailing unit.

NC(=O)C(=Cn1cnc(-c2cc(C(F)(F)F)cc(C(F)(F)F)c2)n1)c1cncnc1 + CN1CCN(c2cc(C(=O)Nc3cc4cc(-c5cnn(C)c5)ccc4cn3)ccn2)CC1 has a reported viability, T/C of 2.09

CC(C)CC(NC(=O)C(Cc1ccccc1)NC(=O)c1cnccn1)B(O)O (stereo not drawn) + CN1CCN(c2cc(C(=O)Nc3cc4cc(-c5cnn(C)c5)ccc4cn3)ccn2)CC1 has a reported viability, T/C of 0.09

C=CC(=O)Nc1cc(Nc2nccc(-c3cn(C)c4ccccc34)n2)c(OC)cc1N(C)CCN(C)C + CNC(=O)c1ccc(Nc2nc(OC3CCCC3)c3c(-c4ccc5nc(C)oc5c4)c[nH]c3n2)c(OC)c1 has a reported viability, T/C of 7.31

====

system: 328373-195-R-J1-PDC complex spheroids, viability % test/control; experiment: Anticancer human tumor 328373-195-R-J1-PDC cell line growth inhibition [CLK]; settings: second compound 0.316 µM; first compound 1 µM; active = viability on the fitted dose curve at most 10% of control; inactive = the rest;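 also: spheroids exposed to the agents for 7 days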
Would you mind answering with one of these outcomes? active, inactive

Q: Each compound tested received a call. Report the one for CC(CO)NC(=O)c1cc(-c2ccc(Cl)cc2)nn(-c2cnn(C)c2)c1=O (stereo not given) + CN1CCN(c2cc(C(=O)Nc3cc4cc(-c5cnn(C)c5)ccc4cn3)ccn2)CC1 .
Result: inactive

Q: Each compound tested received a call. Report the one for CCc1c2c(nc3ccc(O)cc13)-c1cc3c(c(=O)n1C2)COC(=O)[C@]3(O)CC + CN1CCN(c2cc(C(=O)Nc3cc4cc(-c5cnn(C)c5)ccc4cn3)ccn2)CC1 .
Result: active

Q: Each compound tested received a call. Report the one for CC1COCCN1c1cc(C2(S(C)(=N)=O)CC2)nc(-c2ccnc3[nH]ccc23)n1 (stereo not given) + CNC(=O)c1ccc(Nc2nc(OC3CCCC3)c3c(-c4ccc5nc(C)oc5c4)c[nH]c3n2)c(OC)c1 .
Result: active

Q: Each compound tested received a call. Report the one for Nc1ccccc1NC(=O)c1ccc(CNC(=O)OCc2cccnc2)cc1 + CNC(=O)c1ccc(Nc2nc(OC3CCCC3)c3c(-c4ccc5nc(C)oc5c4)c[nH]c3n2)c(OC)c1 .
Result: active

Q: Each compound tested received a call. Report the one for O=C(c1cc(Cc2n[nH]c(=O)c3ccccc23)ccc1F)N1CCN(C(=O)C2CC2)CC1 + CNC(=O)c1ccc(Nc2nc(OC3CCCC3)c3c(-c4ccc5nc(C)oc5c4)c[nH]c3n2)c(OC)c1 .
Result: inactive

====

Please go through the items and note down their IC50.
tested on: 328373-195-R-J1-PDC complex spheroids, viability % test/control; experiment: Anticancer human tumor 328373-195-R-J1-PDC cell line growth inhibition [CLK]; conditions: curve of first compound; second compound 10 µM;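 also: spheroids exposed to the agents for 7 days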

Nc1ccccc1NC(=O)c1ccc(CNC(=O)OCc2cccnc2)cc1 + CNC(=O)c1ccc(Nc2nc(OC3CCCC3)c3c(-c4ccc5nc(C)oc5c4)c[nH]c3n2)c(OC)c1 has a reported IC50 of < 31.6 nM

CCN1CCN(Cc2ccc(Nc3ncc(F)c(-c4cc(F)c5nc(C)n(C(C)C)c5c4)n3)nc2)CC1 + CN1CCN(c2cc(C(=O)Nc3cc4cc(-c5cnn(C)c5)ccc4cn3)ccn2)CC1 has a reported IC50 of < 3.16 nM

COc1cccc2c1C(=O)c1c(O)c3c(c(O)c1C2=O)CC(O)(C(=O)CO)CC3OC1CC(N)C(O)C(C)O1 (stereo unspecified) + CNC(=O)c1ccc(Nc2nc(OC3CCCC3)c3c(-c4ccc5nc(C)oc5c4)c[nH]c3n2)c(OC)c1 has a reported IC50 of < 31.6 nM

COC1C=CCC(C)C(C)S(=O)(=O)NC(=O)c2ccc3c(c2)N(CC2CCC21)CC1(CCCc2cc(Cl)ccc21)CO3 (stereo unspecified) + CNC(=O)c1ccc(Nc2nc(OC3CCCC3)c3c(-c4ccc5nc(C)oc5c4)c[nH]c3n2)c(OC)c1 has a reported IC50 of < 31.6 nM

O=c1[nH]cc(F)c(=O)[nH]1 + CNC(=O)c1ccc(Nc2nc(OC3CCCC3)c3c(-c4ccc5nc(C)oc5c4)c[nH]c3n2)c(OC)c1 has a reported IC50 of < 31.6 nM

CC1COCCN1c1cc(C2(S(C)(=N)=O)CC2)nc(-c2ccnc3[nH]ccc23)n1 (stereo unspecified) + CN1CCN(c2cc(C(=O)Nc3cc4cc(-c5cnn(C)c5)ccc4cn3)ccn2)CC1 has a reported IC50 of < 31.6 nM

====

test system: 328373-195-R-J1-PDC complex spheroids, viability % test/control; assay: Anticancer human tumor 328373-195-R-J1-PDC cell line growth inhibition [CLK]; settings: second compound 0.1 µM; first compound 1 µM; stronger effect = lower value;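 also: spheroids exposed to the agents for 7 days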
test-readout: viability, T/C (%)
The response must be a number in % with no trailing unit.

CC(=O)O[C@H]1C(=O)[C@@]2(C)[C@H]([C@H](OC(=O)c3ccccc3)[C@]3(O)C[C@H](OC(=O)[C@H](O)[C@@H](NC(=O)c4ccccc4)c4ccccc4)C(C)=C1C3(C)C)[C@]1(OC(C)=O)CO[C@@H]1C[C@@H]2O + CNC(=O)c1ccc(Nc2nc(OC3CCCC3)c3c(-c4ccc5nc(C)oc5c4)c[nH]c3n2)c(OC)c1 has a reported viability, T/C of 26.1

CC1COCCN1c1cc(C2(S(C)(=N)=O)CC2)nc(-c2ccnc3[nH]ccc23)n1 (stereo unspecified) + CNC(=O)c1ccc(Nc2nc(OC3CCCC3)c3c(-c4ccc5nc(C)oc5c4)c[nH]c3n2)c(OC)c1 has a reported viability, T/C of 9.68

CCCS(=O)(=O)Nc1ccc(F)c(C(=O)c2c[nH]c3ncc(-c4ccc(Cl)cc4)cc23)c1F + CNC(=O)c1ccc(Nc2nc(OC3CCCC3)c3c(-c4ccc5nc(C)oc5c4)c[nH]c3n2)c(OC)c1 has a reported viability, T/C of 15.7

C=C(F)C(=O)N1CCN(c2nc(OCC3CCCN3C)nc3c2CCN(c2cccc4cccc(Cl)c24)C3)CC1CC#N (stereo unspecified) + CNC(=O)c1ccc(Nc2nc(OC3CCCC3)c3c(-c4ccc5nc(C)oc5c4)c[nH]c3n2)c(OC)c1 has a reported viability, T/C of 10.4

COC1C=CCC(C)C(C)S(=O)(=O)NC(=O)c2ccc3c(c2)N(CC2CCC21)CC1(CCCc2cc(Cl)ccc21)CO3 (stereo unspecified) + CNC(=O)c1ccc(Nc2nc(OC3CCCC3)c3c(-c4ccc5nc(C)oc5c4)c[nH]c3n2)c(OC)c1 has a reported viability, T/C of 15.2

COc1cccc2c1C(=O)c1c(O)c3c(c(O)c1C2=O)CC(O)(C(=O)CO)CC3OC1CC(N)C(O)C(C)O1 (stereo unspecified) + CNC(=O)c1ccc(Nc2nc(OC3CCCC3)c3c(-c4ccc5nc(C)oc5c4)c[nH]c3n2)c(OC)c1 has a reported viability, T/C of 0.13
